Measured pIC50 by item
- Target System: wild-type HIV-1 protease (Human immunodeficiency virus type 1 group M subtype B, UniProt P04585)
pIC50: −log10 of the molar value.
Readout: pIC50

Compound | Result
COC(=O)N[C@@H](Cc1cccc(Cl)c1)C(=O)NC(CCCN1C(=N)N[C@](CC(C)C)(c2ccccc2)C1=O)CC1CC1 (stereo partly shown) | 7.01
COC(=O)N[C@@H](Cc1ccccc1)C(=O)NCCCCN1C(=N)NC(CC(C)C)(c2ccccc2)C1=O (stereo partly shown) | 7.70
N=C1NC(c2ccccc2)(c2ccccc2)C(=O)N1CCCCCNC(=O)[C@@H](N)Cc1ccccc1 | 7.17
COC(=O)N[C@@H](Cc1ccccc1)C(=O)NCCC[C@@H](CCC1CC1)N1C(=N)N[C@](CC(C)C)(c2ccccc2)C1=O | 7.00

----------
A short record of log10 of IC50 observed with wild-type HIV-1 protease (Human immunodeficiency virus type 1 group M subtype B) follows.
Readout: log10 of IC50 (log10 of the value in nM)

Compound | Target System | log10 of IC50
COC(=O)N[C@@H](Cc1ccc(Cl)cc1)C(=O)N[C@@H](C)CCCN1C(=N)N[C@](CC(C)C)(c2ccccc2)C1=O [Example 37] | wild-type HIV-1 protease (Human immunodeficiency virus type 1 group M subtype B) | 1.79
COC(=O)N[C@@H](Cc1ccc(F)cc1)C(=O)NCCCCN1C(=N)NC(c2ccccc2)(c2ccccc2)C1=O [Example 25] | wild-type HIV-1 protease (Human immunodeficiency virus type 1 group M subtype B) | 1.23
COC(=O)N[C@@H](Cc1ccncc1)C(=O)NCCCCN1C(=N)NC(CC(C)C)(c2ccccc2)C1=O (some centres unmarked) [Example 21] | wild-type HIV-1 protease (Human immunodeficiency virus type 1 group M subtype B) | 1.66
COC(=O)N[C@@H](Cc1ccccc1)C(=O)NCCC[C@@H](CC1CC1)N1C(=N)N[C@](CC(C)C)(c2ccccc2)C1=O [Example 53] | wild-type HIV-1 protease (Human immunodeficiency virus type 1 group M subtype B) | 2.40
N=C1NC(c2ccccc2)(c2ccccc2)C(=O)N1CCCCNC(=O)[C@@H](N)CCc1ccccc1 [Example 5] | wild-type HIV-1 protease (Human immunodeficiency virus type 1 group M subtype B) | 0.78
CC[C@@H](CCCN1C(=N)N[C@](CC(C)C)(c2ccccc2)C1=O)NC(=O)[C@H](Cc1ccccc1)NC(=O)OC [Example 47] | wild-type HIV-1 protease (Human immunodeficiency virus type 1 group M subtype B) | 1.34
COC(=O)N[C@@H](CC1CCCCC1)C(=O)N[C@@H](C)CCCN1C(=N)N[C@](CC(C)C)(c2ccccc2)C1=O [Example 41] | wild-type HIV-1 protease (Human immunodeficiency virus type 1 group M subtype B) | 1.49
COC(=O)N[C@@H](Cc1ccccc1)C(=O)N[C@@H](C)CCCN1C(=N)NC(c2ccc(F)cc2)(c2ccc(F)cc2)C1=O [Example 11] | wild-type HIV-1 protease (Human immunodeficiency virus type 1 group M subtype B) | 0.85
COC(=O)N[C@@H](Cc1ccccc1)C(=O)NC(CCCN1C(=N)N[C@](CC(C)C)(c2ccccc2)C1=O)CC1CC1 (some centres unmarked) [Example 29] | wild-type HIV-1 protease (Human immunodeficiency virus type 1 group M subtype B) | 1.52
CC[C@@H](CCCN1C(=N)N[C@](CC(C)C)(c2ccccc2)C1=O)NC(=O)[C@H](Cc1cccc(Cl)c1)NC(=O)OC [Example 49] | wild-type HIV-1 protease (Human immunodeficiency virus type 1 group M subtype B) | 1.18
CC(C)CCC1(c2ccccc2)NC(=N)N(CCCCNC(=O)[C@@H](N)Cc2ccccc2)C1=O (some centres unmarked) [Example 18] | wild-type HIV-1 protease (Human immunodeficiency virus type 1 group M subtype B) | 1.40
CC(=O)N[C@@H](Cc1ccccc1)C(=O)NCCCCN1C(=N)NC(c2ccccc2)(c2ccccc2)C1=O [Example 3] | wild-type HIV-1 protease (Human immunodeficiency virus type 1 group M subtype B) | 0.90
COC(=O)N[C@@H](Cc1ccccc1Cl)C(=O)N[C@H](CCCN1C(=N)N[C@](CC(C)C)(c2ccccc2)C1=O)C(C)C [Example 44] | wild-type HIV-1 protease (Human immunodeficiency virus type 1 group M subtype B) | 1.30
COC(=O)N[C@@H](Cc1cccc2ccccc12)C(=O)N[C@@H](C)CCCN1C(=N)N[C@](CC(C)C)(c2ccccc2)C1=O [Example 38] | wild-type HIV-1 protease (Human immunodeficiency virus type 1 group M subtype B) | 1.36
